tested on: pathological sputum of bronchitic rabbits; test: Mucus regulating properties in bronchitic rabbits (sputum AUC as % compared to bronchitic controls); format: in vivo, male New Zealand white rabbits; conditions: Table 2; oral, equimolecular amounts to S-carboxymethyl cysteine
Endpoint label: Sialic acid (mg/ml), AUC as a 100% compared to bronchitic controls (%)

* COc1ccccc1OCC1NCCS1 (stereo not drawn) | 85
* CC(=O)SCC(=O)Oc1ccccc1OCC1SCCN1C(=O)CSC(C)=O (stereo not drawn) | 31.3
* COc1ccccc1OCC1N[C@H](C(=O)O)CS1 (stereo partly drawn) | 52
* CCOC(=O)C(=O)N1CCSC1COc1ccccc1OC (stereo not drawn) | 56.8
* COc1ccccc1OCC1SCCN1C(=O)Cn1ccnc1 (stereo not drawn) | 63.8
* COc1ccccc1OCC1SCCN1C(=O)CSC(C)=O (stereo not drawn) | 107

Data origin, for the record: patent US4798898A
